Where do these numbers come from? They come from patent US20050271661A1.

- Test system: NFAT
- protocolDetails: NFAT-dependent transcription, NFAT luciferase reporter in CCRF-CEM cells activated with PI
- Assay type: cell-based
- conditionDescription: Homo sapiens; CCRF-CEM cells, NFAT reporter; read-out: IC50, inhibition of PI-stimulated NFAT transcription
assayMetric: pIC50
Interpret pIC50 as the negative base-10 log of the concentration measured in mol/L.

Report pIC50 for Fc1ccc([C@@H]2CCNC[C@H]2COc2ccc3c(c2)OCO3)cc1 please. 5.05
